Molecular target: HGF (hepatocyte growth factor/scatter factor) (UniProt P14210+P14210)
Sequence (P14210 32-494, chain 1 of 2): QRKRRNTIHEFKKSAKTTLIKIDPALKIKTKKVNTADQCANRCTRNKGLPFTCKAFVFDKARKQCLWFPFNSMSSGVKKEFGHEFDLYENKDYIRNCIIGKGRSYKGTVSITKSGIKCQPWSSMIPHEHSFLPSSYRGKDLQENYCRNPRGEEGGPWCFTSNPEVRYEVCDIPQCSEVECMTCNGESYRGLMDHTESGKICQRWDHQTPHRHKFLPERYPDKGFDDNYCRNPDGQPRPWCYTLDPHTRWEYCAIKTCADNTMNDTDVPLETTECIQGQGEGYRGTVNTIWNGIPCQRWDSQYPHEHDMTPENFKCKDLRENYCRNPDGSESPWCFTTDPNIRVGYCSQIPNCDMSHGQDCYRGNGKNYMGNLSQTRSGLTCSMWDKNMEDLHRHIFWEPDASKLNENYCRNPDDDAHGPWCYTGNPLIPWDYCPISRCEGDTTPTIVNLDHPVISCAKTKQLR
Sequence (P14210 495-728, chain 2 of 2): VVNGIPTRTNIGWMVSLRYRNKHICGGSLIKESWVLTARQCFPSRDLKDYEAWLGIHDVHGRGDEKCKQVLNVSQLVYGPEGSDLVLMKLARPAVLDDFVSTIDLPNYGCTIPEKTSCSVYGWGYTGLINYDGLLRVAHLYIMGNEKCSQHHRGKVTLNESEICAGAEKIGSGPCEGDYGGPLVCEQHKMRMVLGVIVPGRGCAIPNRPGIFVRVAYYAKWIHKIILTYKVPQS
Assay: filter
Details: 2'-F pyrimidines; one or two 5' G; one N in printed sequence
pKd: −log10 of the molar value.

- biopolymer.sequence: "GGAGAGNUCCUAUUUAUGACAUCCCAUGCCCCCA [Tr65]"
  pKd: 8.85

Where these numbers come from: patent US6344321
